Ref: patent US20230406883A1

# hNK1R, IP3 Efficacy per record follows
biological target: hNK1R (Homo sapiens, UniProt P25103); construct: host or cells: COS-7; assay: IP3 assay (inositol trisphosphate, 3H-myoinositol) in transiently transfected COS-7 cells; format: cell-based; settings: COS-7 cells; figure legends: percent of 10^-6 M NKA
Sequence (P25103 whole entry): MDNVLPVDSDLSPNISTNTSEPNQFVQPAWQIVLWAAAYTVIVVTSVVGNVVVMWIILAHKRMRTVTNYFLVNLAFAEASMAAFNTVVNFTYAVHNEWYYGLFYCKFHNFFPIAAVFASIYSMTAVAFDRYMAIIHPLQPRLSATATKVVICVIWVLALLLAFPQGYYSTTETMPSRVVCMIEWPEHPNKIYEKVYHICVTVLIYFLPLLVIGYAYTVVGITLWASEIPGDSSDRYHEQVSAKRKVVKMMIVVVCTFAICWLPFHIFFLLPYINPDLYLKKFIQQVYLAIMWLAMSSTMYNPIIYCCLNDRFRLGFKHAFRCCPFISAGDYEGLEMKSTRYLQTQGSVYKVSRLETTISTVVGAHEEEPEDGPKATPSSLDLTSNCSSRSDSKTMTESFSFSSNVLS
Numbered stars: 1 amine (or outer) side, 2 acyl side, 3 side chain; on linkers, the order of the positions; unused ones are H or OH. Square brackets hold non-standard residues; d marks the D form. Peptide text beside a SMILES is read from it. * marks the point of attachment. C18 diacid = O=C(O)CCCCCCCCCCCCCCCCC(=O)*; γGlu = O=C(O)[C@H](CCC(=O)[*:2])N[*:1]; NMeL = CN[C@@H](CC(C)C)C(=O)O; hSer = N[C@@H](CCO)C(=O)O; Nle = CCCC[C@H](N)C(=O)O; AEEA = NCCOCCOCC(=O)O
value kind: hNK1R, IP3 Efficacy (%)

[[record]]
molecule = "COCC[C@H](NC(=O)[C@H](CC(C)C)N(C)C(=O)CNC(=O)[C@@H](NC(=O)[C@H](Cc1ccccc1)NC(=O)[C@H](CCCCN)NC(=O)[C@H](CC(=O)O)NC(=O)COCCOCCNC(=O)COCCOCCNC(=O)CC[C@H](NC(=O)CCCCCCCCCCCCCCCCC(=O)O)C(=O)O)[C@@H](C)O)C(N)=O [compound 383, *Asp;Lys;Phe;Thr;Gly;NmLeu;Metox;NH2] ({C18 diacid-γGlu-AEEA-AEEA}-DKFTG[NMeL][hSer](Me)-NH2)"
value_kind = "hNK1R, IP3 Efficacy"
value_units = "%"
result_number = 50

[[record]]
molecule = "COCC[C@H](NC(=O)[C@H](CC(C)C)NC(=O)[C@@H](CO)NC(=O)[C@@H](NC(=O)[C@H](Cc1ccc(O)cc1)NC(=O)[C@H](CCCCN)NC(=O)[C@H](CC(=O)O)NC(=O)COCCOCCNC(=O)COCCOCCNC(=O)CC[C@H](NC(=O)CCCCCCCCCCCCCCCCC(=O)O)C(=O)O)C(C)C)C(N)=O [compound 396, *Asp;Lys;Tyr;Val;dSer;Leu;Metox;NH2] ({C18 diacid-γGlu-AEEA-AEEA}-DKYV[dS]L[hSer](Me)-NH2)"
value_kind = "hNK1R, IP3 Efficacy"
value_units = "%"
result_number = 0

[[record]]
molecule = "CCCC[C@H](NC(=O)[C@H](CC(C)C)N(C)C(=O)CNC(=O)[C@@H](NC(=O)[C@H](Cc1ccccc1)NC(=O)[C@H](CCCCN)NC(=O)[C@H](CCC(=O)O)NC(=O)COCCOCCNC(=O)COCCOCCNC(=O)CC[C@H](NC(=O)CCCCCCCCCCCCCCCCC(=O)O)C(=O)O)[C@@H](C)O)C(N)=O [compound 397, *Glu;Lys;Phe;Thr;Gly;NmLeu;Nle;NH2] ({C18 diacid-γGlu-AEEA-AEEA}-EKFTG[NMeL][Nle]-NH2)"
value_kind = "hNK1R, IP3 Efficacy"
value_units = "%"
result_number = 0


###

assay: in vivo; parameters: species or system mice; conditions: mouse, sc, 0.5 mg/kg, Half-life
Numbered stars: 1 amine (or outer) side, 2 acyl side, 3 side chain; on linkers, the order of the positions; unused ones are H or OH. Square brackets hold non-standard residues; d marks the D form. Peptide text beside a SMILES is read from it. * marks the point of attachment. C18 diacid = O=C(O)CCCCCCCCCCCCCCCCC(=O)*; γGlu = O=C(O)[C@H](CCC(=O)[*:2])N[*:1]; Stearoyl = CCCCCCCCCCCCCCCCCC(=O)*; NMeL = CN[C@@H](CC(C)C)C(=O)O; hSer = N[C@@H](CCO)C(=O)O; Nle = CCCC[C@H](N)C(=O)O; AEEA = NCCOCCOCC(=O)O
Parameter: half-life. Scope: all listed entries.
value kind: half-life

[[record]]
compound = "CCCC[C@H](NC(=O)[C@H](CC(C)C)N(C)C(=O)CNC(=O)[C@@H](NC(=O)[C@H](Cc1ccc(O)cc1)NC(=O)[C@H](CCCCN)NC(=O)[C@H](CC(=O)O)NC(=O)COCCOCCNC(=O)COCCOCCNC(=O)CC[C@H](NC(=O)CCCCCCCCCCCCCCCCC(=O)O)C(=O)O)C(C)C)C(N)=O [compound 305, *Asp;Lys;Tyr;Val;Gly;NmLeu;Nle;NH2] ({C18 diacid-γGlu-AEEA-AEEA}-DKYVG[NMeL][Nle]-NH2)"
result = "5.5 h"

[[record]]
compound = "COCC[C@H](NC(=O)[C@H](CC(C)C)N(C)C(=O)CNC(=O)[C@@H](NC(=O)[C@H](Cc1ccccc1)NC(=O)[C@H](CCCCN)NC(=O)[C@H](CC(=O)O)NC(=O)COCCOCCNC(=O)COCCOCCNC(=O)CC[C@H](NC(=O)CCCCCCCCCCCCCCCCC(=O)O)C(=O)O)[C@@H](C)O)C(N)=O [compound 383, *Asp;Lys;Phe;Thr;Gly;NmLeu;Metox;NH2] ({C18 diacid-γGlu-AEEA-AEEA}-DKFTG[NMeL][hSer](Me)-NH2)"
result = "≥ 10 h"

[[record]]
compound = "CCCCCCCCCCCCCCCCCC(=O)N[C@@H](CCC(=O)NCCOCCOCC(=O)NCCOCCOCC(=O)N[C@@H](CC(=O)O)C(=O)N[C@@H](CCCCN)C(=O)N[C@@H](Cc1ccc(O)cc1)C(=O)N[C@H](C(=O)NCC(=O)N(C)[C@@H](CC(C)C)C(=O)N[C@@H](CCCC)C(N)=O)C(C)C)C(=O)O [compound 390, *Asp;Lys;Tyr;Val;Gly;NmLeu;Nle;NH2] ({Stearoyl-γGlu-AEEA-AEEA}-DKYVG[NMeL][Nle]-NH2)"
result = "1.7 h"

[[record]]
compound = "COCC[C@H](NC(=O)[C@H](CC(C)C)N(C)C(=O)CNC(=O)[C@@H](NC(=O)[C@H](Cc1ccc(O)cc1)NC(=O)[C@H](CCCCN)NC(=O)[C@H](CC(=O)O)NC(=O)COCCOCCNC(=O)COCCOCCNC(=O)CC[C@H](NC(=O)CCCCCCCCCCCCCCCCC(=O)O)C(=O)O)C(C)C)C(N)=O [compound 344, *Asp;Lys;Tyr;Val;Gly;NmLeu;Metox;NH2] ({C18 diacid-γGlu-AEEA-AEEA}-DKYVG[NMeL][hSer](Me)-NH2)"
result = "≥ 10 h"

